# reported % Haemolysis 50 μM; entries follow
- Test system: erythrocytes from fresh human blood
- setupConditions: 50 μM peptide, 5% erythrocytes, 1 h at 37° C., relative to 200 μM melittin
No end group written: not given here.
readout: % Haemolysis 50 μM (%)

YKLFKKILKKL-NH2 [BP119]	4
YKLFKKILKWL-NH2 [BP047]	81
WKLFKKILKFL-NH2 [BP019]	57
FKLFKKILKFL-NH2 [BP066]	9
Ac-WKLFKKILKWL-NH2 [BP038]	80
LKLFKKILKFL-NH2 [BP081]	10
LKLFKKILKKL-NH2 [BP128]	2
WKLFKKILKWL-NH2 [BP018]	78
LKLFKKILKVL-NH2 [BP033]	4

---

- System: erythrocytes from fresh human blood
- setupConditions: 50 μM peptide, 5% erythrocytes, 1 h at 37° C., relative to 200 μM melittin
Starred links: 1 amine or outer side, 2 acyl side, 3 side chain; linkers in the order of their positions; H or OH if unused. Non-standard residues stand in square brackets, D forms with d. Residues, ends and D or L forms follow the SMILES beside them. *: point of attachment. X1 = O=C([C@H](Cc1c[nH]c2ccccc12)N(Cc1ccccc1)[*:1])[*:2]; Tos = Cc1ccc(S(=O)(=O)*)cc1; Bz = O=C(c1ccccc1)*
readout: % Haemolysis 50 μM (%)

CC[C@H](C)[C@H](NC(=O)[C@H](CCCCN)NC(=O)[C@H](CCCCN)NC(=O)[C@H](Cc1ccccc1)NC(=O)[C@H](CC(C)C)NC(=O)[C@H](CCCCN)NC(=O)[C@H](CCCCN)NC(=O)c1ccccc1)C(=O)N[C@@H](CC(C)C)C(=O)N[C@@H](CCCCN)C(=O)N[C@@H](Cc1ccc(O)cc1)C(=O)N[C@@H](CC(C)C)C(N)=O [BP103]	42
CC[C@H](C)[C@H](NC(=O)[C@H](CCCCN)NC(=O)[C@H](CCCCN)NC(=O)[C@H](Cc1ccccc1)NC(=O)[C@H](CC(C)C)NC(=O)[C@H](CCCCN)NC(=O)[C@H](CCCCN)NS(=O)(=O)c1ccc(C)cc1)C(=O)N[C@@H](CC(C)C)C(=O)N[C@@H](CCCCN)C(=O)N[C@@H](CCCCN)C(=O)N[C@@H](CC(C)C)C(N)=O [BP125]	2
CC[C@H](C)[C@H](NC(=O)[C@H](CCCCN)NC(=O)[C@H](CCCCN)NC(=O)[C@H](Cc1ccccc1)NC(=O)[C@H](CC(C)C)NC(=O)[C@H](CCCCN)NC(=O)[C@@H](N)CCCCN)C(=O)N[C@@H](CC(C)C)C(=O)N[C@@H](CCCCN)C(=O)N[C@@H](Cc1ccc(O)cc1)C(=O)N[C@@H](CC(C)C)C(N)=O [BP100]	3
CC[C@H](C)[C@H](NC(=O)[C@H](CCCCN)NC(=O)[C@H](CCCCN)NC(=O)[C@H](Cc1ccccc1)NC(=O)[C@H](CC(C)C)NC(=O)[C@H](CCCCN)NC(=O)[C@@H](N)Cc1ccccc1)C(=O)N[C@@H](CC(C)C)C(=O)N[C@@H](CCCCN)C(=O)N[C@@H](Cc1ccc(O)cc1)C(=O)N[C@@H](CC(C)C)C(N)=O [BP090]	11
CC[C@H](C)[C@H](NC(=O)[C@H](CCCCN)NC(=O)[C@H](CCCCN)NC(=O)[C@H](Cc1ccccc1)NC(=O)[C@H](CC(C)C)NC(=O)[C@H](CCCCN)NC(=O)[C@@H](N)CC(C)C)C(=O)N[C@@H](CC(C)C)C(=O)N[C@@H](CCCCN)C(=O)N[C@@H](Cc1ccc(O)cc1)C(=O)N[C@@H](CC(C)C)C(N)=O [BP105]	14
CC[C@H](C)[C@H](NC(=O)[C@H](CCCCN)NC(=O)[C@H](CCCCN)NC(=O)[C@H](Cc1ccccc1)NC(=O)[C@H](CC(C)C)NC(=O)[C@H](CCCCN)NC(=O)[C@H](Cc1c[nH]c2ccccc12)NCc1ccccc1)C(=O)N[C@@H](CC(C)C)C(=O)N[C@@H](CCCCN)C(=O)N[C@H](C(=O)N[C@@H](CC(C)C)C(N)=O)C(C)C [BP011] (H-[X1]KLFKKILKVL-NH2)	81
CC[C@H](C)[C@H](NC(=O)[C@H](CCCCN)NC(=O)[C@H](CCCCN)NC(=O)[C@H](Cc1ccccc1)NC(=O)[C@H](CC(C)C)NC(=O)[C@H](CCCCN)NC(=O)[C@@H](N)CCCCN)C(=O)N[C@@H](CC(C)C)C(=O)N[C@@H](CCCCN)C(=O)N[C@H](C(=O)N[C@@H](CC(C)C)C(N)=O)C(C)C [BP015]	0
CC[C@H](C)[C@H](NC(=O)[C@H](CCCCN)NC(=O)[C@H](CCCCN)NC(=O)[C@H](Cc1ccccc1)NC(=O)[C@H](CC(C)C)NC(=O)[C@H](CCCCN)NC(=O)[C@H](Cc1ccc(O)cc1)NS(=O)(=O)c1ccc(C)cc1)C(=O)N[C@@H](CC(C)C)C(=O)N[C@@H](CCCCN)C(=O)N[C@@H](CCCCN)C(=O)N[C@@H](CC(C)C)C(N)=O [BP121] (Tos-YKLFKKILKKL-NH2)	22
CC[C@H](C)[C@H](NC(=O)[C@H](CCCCN)NC(=O)[C@H](CCCCN)NC(=O)[C@H](Cc1ccccc1)NC(=O)[C@H](CC(C)C)NC(=O)[C@H](CCCCN)NC(=O)[C@H](Cc1ccc(O)cc1)NC(=O)c1ccccc1)C(=O)N[C@@H](CC(C)C)C(=O)N[C@@H](CCCCN)C(=O)N[C@@H](CCCCN)C(=O)N[C@@H](CC(C)C)C(N)=O [BP122] (Bz-YKLFKKILKKL-NH2)	32
CC[C@H](C)[C@H](NC(=O)[C@H](CCCCN)NC(=O)[C@H](CCCCN)NC(=O)[C@H](Cc1ccccc1)NC(=O)[C@H](CC(C)C)NC(=O)[C@H](CCCCN)NC(=O)[C@H](CCCCN)NC(C)=O)C(=O)N[C@@H](CC(C)C)C(=O)N[C@@H](CCCCN)C(=O)N[C@@H](Cc1ccc(O)cc1)C(=O)N[C@@H](CC(C)C)C(N)=O [BP101]	4

---

- Test system: erythrocytes from fresh human blood
- setupConditions: 150 μM peptide, 5% erythrocytes, 1 h at 37° C., relative to 200 μM melittin
readout: % Haemolysis 150 μM (%)

CC[C@H](C)[C@H](NC(=O)[C@H](CCCCN)NC(=O)[C@H](CCCCN)NC(=O)[C@H](Cc1ccccc1)NC(=O)[C@H](CC(C)C)NC(=O)[C@H](CCCCN)NC(=O)[C@@H](N)CCCCN)C(=O)N[C@@H](CC(C)C)C(=O)N[C@@H](CCCCN)C(=O)N[C@@H](Cc1c[nH]c2ccccc12)C(=O)N[C@@H](CC(C)C)C(N)=O	84
CC[C@H](C)[C@H](NC(=O)[C@H](CCCCN)NC(=O)[C@H](CCCCN)NC(=O)[C@H](Cc1ccccc1)NC(=O)[C@H](CC(C)C)NC(=O)[C@H](CCCCN)NC(=O)[C@@H](N)CCCCN)C(=O)N[C@@H](CC(C)C)C(=O)N[C@@H](CCCCN)C(=O)N[C@H](C(=O)N[C@@H](CC(C)C)C(N)=O)C(C)C	16

---

- Test system: erythrocytes from fresh human blood
- setupConditions: 250 μM peptide, 5% erythrocytes, 1 h at 37° C., relative to 200 μM melittin
No end group written: not given here.
readout: % Haemolysis 250 μM (%)

FKLFKKILKFL-NH2 [BP066]	89
YKLFKKILKWL-NH2 [BP047]	82
LKLFKKILKKL-NH2 [BP128]	66
YKLFKKILKKL-NH2 [BP119]	45
LKLFKKILKFL-NH2 [BP081]	88
WKLFKKILKFL-NH2 [BP019]	100
Ac-WKLFKKILKWL-NH2 [BP038]	80
LKLFKKILKVL-NH2 [BP033]	68
WKLFKKILKWL-NH2 [BP018]	74

---

# reported % Haemolysis 150 μM; entries follow
- System: erythrocytes from fresh human blood
- setupConditions: 150 μM peptide, 5% erythrocytes, 1 h at 37° C., relative to 200 μM melittin
No end group written: not given here.
readout: % Haemolysis 150 μM (%)

Ac-WKLFKKILKWL-NH2 [BP038]	86
WKLFKKILKWL-NH2 [BP018]	68
LKLFKKILKVL-NH2 [BP033]	38
WKLFKKILKFL-NH2 [BP019]	94
YKLFKKILKWL-NH2 [BP047]	76
LKLFKKILKKL-NH2 [BP128]	31
FKLFKKILKFL-NH2 [BP066]	63
LKLFKKILKFL-NH2 [BP081]	65
YKLFKKILKKL-NH2 [BP119]	19
